Cited source for all entries: the supplement of paper PMC8967900

system: SUP-B15; assay: selective drug sensitivity score (sDSS, relative to normal bone marrow) (sDSS (score)); higher = more potent and effective on the cell line relative to normal bone marrow cells; details: 72 h;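 further: ALL cell lines in 384-well plates, five doses spanning 10,000-fold, each plate scaled between vehicle and 100 µmol/L benzalkonium chloride controls, sDSS an adapted area-under-curve metric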
Entries get a class label from measured selective drug sensitivity score. See ranges: bottom: < 0; middle: ≥ 0 and < 10; top: ≥ 10

Some solved cases for reference:
| molecule | testSystem | classification |
| --- | --- | --- |
| Cc1cc(OCc2nnc(SC3CCCC3)n2-c2cccnc2)ccc1-c1ccc(S(C)(=O)=O)cc1 [NMS-873] (top concentration 10000 nM) | SUP-B15 | top |
| CN[C@@H](C)C(=O)N[C@H]1CN(C(=O)CC(C)C)CC[C@H]2CC[C@@H](C(=O)NC(c3ccccc3)c3ccccc3)N2C1=O [AT-406] (top concentration 10000 nM) | SUP-B15 | bottom |
| Cn1nccc1Nc1nccc(-c2ccn([C@H](CO)c3ccc(Cl)c(F)c3)c(=O)c2)n1 [Ravoxertinib] (top concentration 10000 nM) | SUP-B15 | top |
| CCC(C)(C)C(=O)O[C@H]1C[C@@H](C)C=C2C=C[C@H](C)[C@H](CC[C@@H]3C[C@@H](O)CC(=O)O3)[C@H]21 [Simvastatin] (top concentration 10000 nM) | SUP-B15 | bottom |
| CCc1c2c(nc3ccc(O)cc13)-c1cc3c(c(=O)n1C2)COC(=O)[C@]3(O)CC [SN-38] (top concentration 10000 nM) | SUP-B15 | top |
| O=C1c2c(O)ccc(O)c2C(=O)c2c(NCCNCCO)ccc(NCCNCCO)c21 [Mitoxantrone] (top concentration 1000 nM) | SUP-B15 | top |
| CCN1CCN(Cc2ccc(Nc3ncc(F)c(-c4cc(F)c5nc(C)n(C(C)C)c5c4)n3)nc2)CC1 [Abemaciclib] (top concentration 2500 nM) | SUP-B15 | middle |
| Sc1ncnc2nc[nH]c12 [Mercaptopurine] (top concentration 10000 nM) | SUP-B15 | top |
| NC[C@@](O)(c1ccc(Cl)cc1)c1ccc(-c2cn[nH]c2)cc1 (top concentration 10000 nM) | SUP-B15 | middle |

Now for another entry.
Exam item: Sort CCCN(CCC)C(=O)C1=Cc2ccc(-c3ccc(C(=O)N4CCCC4)cc3)cc2N=C(N)C1 [Motolimod] (top concentration 10000 nM) into one of the categories.
Marked response: bottom

###

system: JURKAT; test: selective drug sensitivity score (sDSS, relative to normal bone marrow) (sDSS (score)); higher = more potent and effective on the cell line relative to normal bone marrow cells; settings: 72 h
This listing pairs compounds with measured selective drug sensitivity score.
I'd appreciate a reply containing only the number, no unit.

Sample records with selective drug sensitivity score:
| compound | reportedValue |
| --- | --- |
| Cn1c(Nc2ccc(C(F)(F)F)cc2)nc2cc(Oc3ccnc(-c4ncc(C(F)(F)F)[nH]4)c3)ccc21 [NVP-RAF265] (top concentration 1000 nM) | 2.88 |
| Cc1ncc(-c2ccnc(Nc3ccc(S(C)(=O)=O)cc3)n2)n1C(C)C [AZD-5438] (top concentration 10000 nM) | -1.06 |
| CN(C)C[C@@H]1CCn2cc(c3ccccc32)C2=C(C(=O)NC2=O)c2cn(c3ccccc23)CCO1 [Ruboxistaurin] (top concentration 10000 nM) | -1.84 |
| CCc1c2c(nc3ccc(O)cc13)-c1cc3c(c(=O)n1C2)COC(=O)[C@]3(O)CC [SN-38] (top concentration 10000 nM) | 22.7 |

Exam item: Form entry - test system: JURKAT; read-out: selective drug sensitivity score; compound: C/C=C1\NC(=O)[C@H]2CSSCC/C=C/[C@H](CC(=O)N[C@H](C(C)C)C(=O)N2)OC(=O)[C@H](C(C)C)NC1=O [Romidepsin] (top concentration 1000 nM)
Marked response: 2.06

Exam item: Form entry - test system: JURKAT; read-out: selective drug sensitivity score; compound: CC1=C2C[C@H]3[C@@H](CC[C@@H]4C[C@H](NS(C)(=O)=O)CC[C@@]43C)[C@@H]2CC[C@@]2(C1)O[C@@H]1C[C@H](C)CN[C@H]1[C@H]2C [Saridegib] (top concentration 10000 nM)
Marked response: -0.56
